- Test system: heart rate
- TEST_DETAILS: Effects on heart rate
- Assay type: in vivo, mongrel adult dogs
- ASSAY_CONDITIONS: 6.0 mg/kg i.v., 1 min
MEASURE_NAME: Changes(%) of basal values, heart rate
Write down the numeric answer in % and omit the unit.

>  <COMPOUND>
CCOC(=O)N1CCN(C(C#N)c2ccc(OC)c(OC)c2)CC1 (centres unmarked)

>  <ENDPOINT_RESULT>
-3.9

$$$$

Here is another compound to look at.
Form entry - test system: heart rate; read-out: Changes(%) of basal values, heart rate; compound: COc1ccc(C(C#N)N2CCCN(CC=Cc3ccccc3)CC2)cc1OC (centres unmarked) -0.9

----------
Items are presented alongside their recorded Changes (%) of basal values, arterial mean blood pressure.
- Tested on: arterial mean blood pressure
- TEST_DETAILS: Effects on arterial mean blood pressure
- Assay type: in vivo, mongrel adult dogs
- ASSAY_CONDITIONS: 2.0 mg/kg i.v., 30 min
Structures can show the parent of a compound that is named as a salt.
Answer with the number, then the unit.

Consider the reported Changes (%) of basal values, arterial mean blood pressure for these compounds:
>  <COMPOUND>
COc1ccc(C(C#N)N2CCN(CC=Cc3ccccc3)CC2)cc1OC (stereo not drawn)

>  <ENDPOINT_RESULT>
0%

$$$$
>  <COMPOUND>
CCOC(=O)N1CCN(C(C#N)c2ccc(OC)c(OC)c2)CC1 (stereo not drawn)

>  <ENDPOINT_RESULT>
-4.5%

$$$$
>  <COMPOUND>
COc1ccc(C(C#N)N2CCN(CC(=O)N3CCCC3)CC2)cc1OC (stereo not drawn)

>  <ENDPOINT_RESULT>
0%

$$$$

Entry COc1ccc(CN2CCNCC2)c(OC)c1OC [Vastarel F, dihydrochloride, reference compound] has what Changes (%) of basal values, arterial mean blood pressure? -2.0%

And for COc1ccc(C(C#N)N2CCCN(CC=Cc3ccccc3)CC2)cc1OC (stereo not drawn) ? -0.3%

And for COc1ccc(C(C#N)N2CCNCC2)cc1OC (stereo not drawn) ? -0.4%

----------
- System: heart rate
- TEST_DETAILS: Effects on heart rate
- Assay type: in vivo, mongrel adult dogs
- ASSAY_CONDITIONS: 20.0 mg/kg i.v., 10 min
Items are presented alongside their recorded Changes(%) of basal values, heart rate.
Write down the numeric answer in % and omit the unit.

Consider the reported Changes(%) of basal values, heart rate for these compounds:
>  <COMPOUND>
COc1ccc(C(C#N)N2CCN(CC(=O)N3CCCC3)CC2)cc1OC (stereo not shown)

>  <MEASURE_NAME>
Changes(%) of basal values, heart rate

>  <ENDPOINT_RESULT>
-1.0

$$$$
>  <COMPOUND>
COc1ccc(C(C#N)N2CCCN(CC=Cc3ccccc3)CC2)cc1OC (stereo not shown)

>  <MEASURE_NAME>
Changes(%) of basal values, heart rate

>  <ENDPOINT_RESULT>
-9.1

$$$$
>  <COMPOUND>
CCOC(=O)N1CCN(C(C#N)c2ccc(OC)c(OC)c2)CC1 (stereo not shown)

>  <MEASURE_NAME>
Changes(%) of basal values, heart rate

>  <ENDPOINT_RESULT>
-1.8

$$$$

Here is another compound to look at.
Entry COc1ccc(C(C#N)N2CCN(CC=Cc3ccccc3)CC2)cc1OC (stereo not shown) has what Changes(%) of basal values, heart rate? -3.9
